Reference source for all entries: PubChem BioAssay (NCI)

- Test system: HT29 colon
- procedure.text: NCI-60 one-dose screen, 48 h (100 = growth as untreated, 0 = no growth, -100 = all killed)
- setup.conditions: 10 µM unless noted
About 83,000 compounds went through this panel and 20% of them were active in at least one assay; those are over-represented in the sample as a whole.
Examples of compounds with documented growth follow.
Give just the number in %; leave the unit off.

Example entries begin here.
- compound: "COc1ccc(/C=C2\\Cc3c(Br)cccc3C2=O)c(OC)c1"
  assay.system: "HT29 colon"
  metric: "growth"
  units.symbol: "%"
  reading: 64.4
- compound: "CCOC(C)(c1ccc(Cl)cc1)C1CCNCC1 (stereo unspecified)"
  assay.system: "HT29 colon"
  metric: "growth"
  units.symbol: "%"
  reading: 85.2
- compound: "COc1cc(NC(C)CCCN)c2ncccc2c1Sc1ccc(Cl)cc1 (stereo unspecified)"
  assay.system: "HT29 colon"
  metric: "growth"
  units.symbol: "%"
  reading: -46.4
- compound: "COc1cc(C)cc2oc3oc(=O)c(-c4csc(-c5cc6ccccc6oc5=O)n4)cc3c(=O)c12"
  assay.system: "HT29 colon"
  metric: "growth"
  units.symbol: "%"
  reading: 110
- compound: "O=C(CS)OCC(COC(=O)CS)(COC(=O)CS)COC(=O)CS"
  assay.system: "HT29 colon"
  metric: "growth"
  units.symbol: "%"
  reading: 98.9

Tell us which growth value is on record for `COc1cc2nccc(Oc3ccc(NC(=O)C4(C(=O)Nc5ccc(F)cc5)CC4)cc3)c2cc1Oc1ccc(N)cn1`
9.65

Tell me its growth given `O=C1/C(=C\c2cccn2Cc2ccc(Cl)cc2)c2ccccc2N1c1c(Cl)cccc1Cl` as the entry.
85.5

Entry Nc1nc2c(c3ncccc13)C(c1ccccc1)Cc1ncccc1-2 (stereo unspecified) needs its growth filled in; supply it.
56.9

Input `CN(C)c1ccc(N2Cc3ccccc3OC3=C2C(=O)c2c(O)ccc(O)c2C3=O)cn1` , output reported growth.
-50.8

Identify measured growth associated with `O=Cc1ccc2nc(C(Cl)(Cl)Cl)ccc2c1`
102

Dear colleague, please send me the reported growth for `COc1ccc(-c2[nH]nc(N)c2-c2cc(OC)c(OC)c(OC)c2)cc1` when you can.
-2.71

Determine its reported growth: `Cc1cc(O)ccc1C1=NN(c2ccc(S(N)(=O)=O)cc2)C(=O)CC1`
11.2

Note growth for the compound shown: CCCN(CCC)CC(O)COc1ccccc1C(=O)Nc1ccccc1 (stereo unspecified)
71.3

Answer with the recorded growth for the compound listed here: `O=C(CI)NCCNc1cccc2c(S(=O)(=O)O)cccc12`
110

Using known records, supply growth for `O=C(Nc1ccc(Oc2ccc(Nc3nc4ccccc4s3)cc2)cc1)Nc1ccc(Cl)c(C(F)(F)F)c1`
-10.9

Tell me its growth given `C/C(=C\C(=N\N=C(N)N)c1ccc(Cl)cc1)c1ccc(Cl)cc1` as the entry.
-70.1

Entry `c1ccc2c(Cc3csc4ccccc34)csc2c1` needs its growth filled in; supply it.
76.2

Specify measured growth for `C=C(CN1CC=CCC1)[C@@H]1CC[C@]2(C(=O)OC)CC[C@]3(C)[C@H](CC[C@@H]4[C@@]5(C)CC[C@H](OC(C)=O)C(C)(C)[C@@H]5CC[C@]43C)[C@@H]12` .
75.3

Supply measured growth of `Cc1ccc(NC(=O)c2[nH]c(SCCN(C)C)nc2-c2ccc(F)cc2)cc1C#Cc1cnc2cccnn12` in your reply.
-14.9

Tell me growth reported for CC(C)(C)NC(=O)C(OC(=O)C1CCc2cc(F)ccc2O1)c1ccccc1Cl (stereo unspecified)
103

Report growth, nothing else, for this compound: `CCN(CC)CCCCCCCNc1cc(OC)cc2c(C)ccnc12`
52.5
